# MEASUREMENT_TARGET: human CSNK1D (Homo sapiens (Human), UniProt P48730)
# Sequence (P48730 whole entry): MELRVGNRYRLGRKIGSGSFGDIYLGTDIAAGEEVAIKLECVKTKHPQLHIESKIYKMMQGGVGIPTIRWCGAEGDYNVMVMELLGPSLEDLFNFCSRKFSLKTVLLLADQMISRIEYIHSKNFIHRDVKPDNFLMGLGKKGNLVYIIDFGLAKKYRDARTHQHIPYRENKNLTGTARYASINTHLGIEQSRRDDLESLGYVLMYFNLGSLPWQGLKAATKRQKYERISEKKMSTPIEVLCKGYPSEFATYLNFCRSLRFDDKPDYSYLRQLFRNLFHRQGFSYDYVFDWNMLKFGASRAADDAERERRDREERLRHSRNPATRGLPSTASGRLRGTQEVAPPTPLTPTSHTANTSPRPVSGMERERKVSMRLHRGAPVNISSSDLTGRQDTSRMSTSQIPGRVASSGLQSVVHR
# MEASUREMENT_DESCRIPTION: CSNK1D Assay (ADP-Glo, 1 μM ATP)
# Format: biochemical
# RUN_PARAMETERS: read-out: CSNK1D IC50 [mol/l] (median)
# Method: CSNK1 D-inhibitory activity of compounds of the present invention in presence of 1 μM adenosine-tri-phosphate (ATP) was quantified employing the CSNK1D assay as described in the following paragraphs. In essence, the enzyme activity is measured by quantification of the adenosine-di-phosphate (ADP), which is generated as a co-product of the enzyme reaction, via the “ADP-Glo™ Kinase Assay” kit from the company Promega. […]
READOUT_KIND: IC50 (nM)
Give bare numbers, in nM.

INSERT INTO results (compound, unit_of_measure, observed) VALUES
  ('CN1CCc2[nH]c(-c3ccnc(NC(=O)Cc4cccc(C(F)(F)F)c4)c3)c(Nc3ccccc3)c2C1=O [Example 116]', 'nM', 54.4),
  ('CC(C(=O)Nc1cc(-c2[nH]c3c(c2Nc2ccccc2)C(=O)N(C2CC2)CC3)ccn1)c1ccc(F)cc1 (stereo not drawn) [Example 8]', 'nM', 37.9),
  ('CC1(C)Cc2[nH]c(-c3ccnc(NC(=O)C(CN)c4ccc(F)cc4)c3)c(Nc3ccccc3)c2C(=O)N1 (single isomer, unassigned; enantiomer 2) [Example 141]', 'nM', 127),
  ('CC(C)(O)CN1CCc2[nH]c(-c3ccnc(NC(=O)Cc4ccc(F)cc4)c3)c(Nc3ccccc3)c2C1=O [Example 23]', 'nM', 36.8),
  ('CC1(C)Cc2[nH]c(-c3ccnc(NC(=O)Cc4ccc(F)cc4)c3)c(Nc3cccc(F)c3Cl)c2C(=O)N1 [Example 112]', 'nM', 8.41);

As a next step, examine the compound that follows.
Value wanted: IC50 (human CSNK1D (Homo sapiens (Human), UniProt P48730)) of entry CN1C(=O)c2c([nH]c(-c3ccnc(NC(=O)C(CC(F)F)c4ccc(F)cc4)c3)c2Nc2ccccc2)CC12CCC2 (single isomer, unassigned; enantiomer 1) [Example 161]
360

Cited source: patent US12227501B2
